From: PubChem BioAssay (NCI)

# Tested on: ACHN renal
# Test Protocol: NCI-60 one-dose screen, 48 h
# Test Parameters: 10 µM
About 83,000 compounds went through this panel and 20% of them were active in at least one assay; those are over-represented in the sample as a whole. Activity calls are given as the source filed them. Rule for the calls: active = growth percent below 10; inactive = the rest.
Outcome codes: class 1 = active, class 0 = inactive

1. CCOc1ccccc1/C=N/N1CCCCCC1    class 0
2. COc1ccc(N(C)c2ncnc3occ(C)c23)cc1    class 0
3. COc1ccc(/C=C2/SC(=S)NC2=O)c(OC)c1OC    class 0
4. O=C(NCCNC(=O)c1ccc(F)cc1)Nc1ccc(-n2cc(-c3ccncc3)c(-c3ccc(Cl)c(O)c3)n2)cc1    class 1
5. C[C@H]1[C@H](OC(=O)CCC(=O)O)O[C@@H]2O[C@]3(C)CC[C@H]4[C@H](C)CC[C@@H]1[C@@]24OO3    class 0
6. CC(C)[N+]1(C)C2CC[C@@H]1CC(OC(=O)C(CO)c1ccccc1)C2 (stereo partly drawn)    class 0
7. Nc1nc(Cl)nc2c1ncn2C1O[C@H](CO)[C@@H](O)[C@@H]1F (stereo partly drawn)    class 1
8. Nc1nc(-c2cccnc2)nc2c1sc(=S)n2-c1ccccc1    class 0
9. COc1ccc(-c2nn(-c3cccc(Cl)c3)cc2-c2c(C#N)c(N)n(N)c(=O)c2C#N)cc1    class 0
10. C=CCn1c(SCC(=O)Nc2ccc(C(=O)/C=C/c3ccc(Cl)cc3)cc2)nnc1-c1cc(-c2ccccc2)nc2ccccc12    class 0
11. CCCCC(CC)CN=C(N)NC(N)=NCCCCCCN=C(N)NC(N)=NCC(CC)CCCC (stereo not drawn)    class 1
12. CC1=CC2C(C(O)CC3(C)C2CC(C)C32OCOC23COCO3)C2(C)C/C(=C/O)C(=O)C=C12 (stereo not drawn)    class 1
13. COc1cc2c(cc1NC(=O)C(F)(F)F)-c1ccc(NC(=O)C(F)(F)F)cc1C2    class 0
14. COc1cc2c(cc1OC)C(C(CCCCCC(CCC(C)C)C1NCCc3cc(OC)c(OC)cc31)CCC(C)C)NCC2 (stereo not drawn)    class 1
15. C/C=C/C1=CN2C(=O)c3cc(OC4OC(C)C(NC)C(C)(O)C4O)c(C)c(O)c3N=C[C@@H]2C1 (stereo partly drawn)    class 1
16. CC[N+](CC)=c1ccc2nc3c(cc(NCc4ccccc4)c4ccccc43)oc-2c1    class 1
17. COc1cc(NC(=O)C2=C(N3CCOCC3)/C(=C/c3ccc(Cl)cc3)CC2)cc(OC)c1OC    class 0
18. O=C(O)Cc1ccc(O)c(O)c1    class 0

====

Measured growth values are reported for all entries that follow.
# Test system: SK-MEL-2 melanoma
# Test Protocol: NCI-60 one-dose screen, 48 h (100 = growth as untreated, 0 = no growth, -100 = all killed)
# Test Parameters: 10 µM
The panel holds about 83,000 compounds, 20% with a hit somewhere; the sample as a whole holds those more often.
Experimental Readout: growth (%)

1. N#CC1=C(N)Oc2cc(N)ccc2C1c1cccnc1 (configuration not stated)    97.4
2. CNS(=O)(=O)Oc1ccc(-c2sc3cc(OS(=O)(=O)NC)ccc3c2C(=O)c2ccc(OCCN3CCCCC3)cc2)cc1    83.7
3. CC(=O)/C(=C/c1ccc(Br)cc1)C(=O)c1ccccc1    107
4. CCN(CC)CCOc1ccc2c(c1O)C(=O)c1ccccc1C2=O    88.1
5. O=C(CCCCC(=O)Oc1c(Cl)cc(Cl)cc1[N+](=O)[O-])Oc1c(Cl)cc(Cl)cc1[N+](=O)[O-]    93.6
6. O=C(CSc1nnc(-c2ccc(Cl)cc2)o1)Nc1ccc(C(=O)/C=C/c2ccc(Cl)cc2)cc1    101
7. CC(C)N(CCOc1ccc(-c2nc3sccn3c2-c2ccnc(S(C)(=O)=O)n2)cc1)C(C)C    106
8. CCN(CC)CCOC(=O)c1cc(OCc2ccccc2)c(OCc2ccccc2)c(OCc2ccccc2)c1    78.5
9. CC(=O)Nc1ccc2c(c1)C(=O)c1cccc(C(=O)O)c1-2    115
10. CCOC(=O)C1=CSC2=NC3=C(CCC/C3=C\c3cc(OC)c(OC)c(OC)c3)C(c3cc(OC)c(OC)c(OC)c3)N12 (configuration not stated)    106
11. Cc1ccc(Cl)cc1NC(=O)CCl    86.9
12. CCOC(=O)C1C(C(=O)OCC)C2C(=O)C3C(C(=O)OCC)C(C(=O)OCC)C3C(=O)C12 (configuration not stated)    115
13. CCCCN(CCCC)C(=O)[C@H](CC)[C@@H]1CC[C@@H](C)[C@@H]([C@H](C)[C@@H](O)[C@@H](C)C(=O)[C@H](CC)C2O[C@]3(C=C[C@@H](O)[C@]4(CC[C@@](C)([C@H]5CC[C@](O)(CC)[C@H](C)O5)O4)O3)[C@H](C)C[C@@H]2C)O1 (some centres not stated)    -12.4
14. CC(C)(O)CCl    153
15. OCC1OC(n2ccc3c(NO)ncnc32)C(O)C1O (configuration not stated)    -78.6
16. CC(=O)C1N=NCC1c1ccccc1 (configuration not stated)    97.3
17. COc1ccc(-c2cc(-c3ccc(OC)c(OC)c3)nc(SCCCC(=O)NO)n2)cc1    -5.66
18. COc1ccc(-c2cc(-c3ccccc3)nc(SCCCCCCC(=O)NO)n2)cc1    78
19. N#Cc1ccc(C(=O)CSc2nccc(Nc3ccc(C(=O)O)cc3)n2)cc1    106
20. COc1ccc(/C=C2\CCCC3=C2NC(N)=NC3c2ccc(OC)c(OC)c2)cc1OC (configuration not stated)    56.8
21. Cc1cc(=O)n2nnc3cc(Cl)c(Cl)cc3n12    102
22. COc1ccccc1/C=N\N/C(N)=N\N=C\c1ccccc1OC    21.4
23. CC1=CC2C(C(O)CC3(C)C2CC(C)C32OCOC23COCO3)C2(C)C/C(=C/O)C(=O)C=C12 (configuration not stated)    76.1
24. COc1cc(C2CC(c3ccccc3)=NN2C(C)=O)cc(OC)c1OC (configuration not stated)    47.6
25. COc1cc2c(cc1OC)C(C(CCCCCC(CCC(C)C)C1NCCc3cc(OC)c(OC)cc31)CCC(C)C)NCC2 (configuration not stated)    -91.9
26. COc1ccc(C(=O)CSc2nc(-c3cc(OC)ccc3OC)cc(-c3ccc(OC)cc3)c2C#N)cc1    103
27. c1cncc(-c2csc(-c3c[nH]c4ccccc34)n2)c1    97.3
